- Test system: DeltatarO mutant
- PROTOCOL NOTES: S. aureus survival, RN4220 and DeltatarO strains – OD600, teichoic acid synthesis inhibitors, primary screen (AID 463173)
- CONDITION DETAILS: S. aureus RN4220 wild type/DeltatarO growth, OD600, 18 h, stronger effect = lower value, screened at 18.75 µg/mL (by protocol)
The campaign covered roughly 52,000 compounds. About 4,300 (8.3%) were called active. The sample as a whole holds a higher share of actives than the screen did.
// reported survival for each item listed
QUANTITY: survival (%)

molecule=CCc1ccc(NC(=O)CN2C(=O)C(c3ccc(F)cc3)=NC2(C)C)cc1 quantity=survival test_value=81
molecule="CC(C)c1ccc(NC(=O)C2(C)Cc3ccccc3C(=O)O2)cc1 (stereo unspecified)" quantity=survival test_value=106
molecule=CCCn1c2c(c(O)c(C(=O)Nc3ccccc3F)c1=O)CCCC2 quantity=survival test_value=93
molecule=COCCNC(=O)CN1C(=O)c2cccnc2Oc2ccc(Cl)cc21 quantity=survival test_value=85
molecule=COc1ccc(NC(=O)c2ccc3c(c2)nnn3C2CCCC2)cc1Cl quantity=survival test_value=88
molecule=OCCn1nnnc1-c1ccccc1 quantity=survival test_value=85
